Data origin: PubChem BioAssay (NCI)

# Tested on: SK-OV-3 ovarian
# assay-explanation: NCI tumour cell line growth inhibition, 48 h
metric-name: log10 TGI (log10 of the value in µM)

In [3]: df
Out[3]:
                                   molecule     assay_system  metric_name  observed_result
0  COc1cc(C(c2cc3c(cc2O)OCO3)N2CCCCC2)cc(OC)c1OC (stereo unspecified)  SK-OV-3 ovarian    log10 TGI             1.75
1  Cc1ccc(NC(=O)CC(=O)n2nc(-c3ccccc3)c(N=Nc3ccccc3Cl)c2-c2ccccc2)cc1  SK-OV-3 ovarian    log10 TGI             1.78
2  COC(=O)c1c2c(c(C)[n+]([O-])c1C)C(=O)C=C(NCc1ccc(OC)cc1)C2=O  SK-OV-3 ovarian    log10 TGI             0.97
3  C=C1CC(C)(COc2ccc3ccc(=O)oc3c2)OC1=O (stereo unspecified)  SK-OV-3 ovarian    log10 TGI             1.33
4  Cc1ccc(C(=O)C(Cl)C(Cl)c2ccc(C)cc2)cc1 (stereo unspecified)  SK-OV-3 ovarian    log10 TGI             1.49
5  COc1cc(C2=C(C#N)C(N)OC3=C2COc2ccccc23)cc(OC)c1OC (stereo unspecified)  SK-OV-3 ovarian    log10 TGI             1.59
6     COc1cc(Nc2cnc3cc(F)c(F)cc3n2)cc(OC)c1  SK-OV-3 ovarian    log10 TGI             1.90
7           CN(C)CC/C(=N\Nc1ccccc1)c1ccccc1  SK-OV-3 ovarian    log10 TGI             1.54
8  CN(C)c1ccc(/C=c2/c3ccccc3n3c2cc(C24CC5CC(CC(C5)C2)C4)[n+]3C)cc1  SK-OV-3 ovarian    log10 TGI             0.17
